# System: 3',5'-cyclic-AMP phosphodiesterase 4B (Homo sapiens) (UniProt Q07343)
# Sequence (Q07343 whole entry, looked up): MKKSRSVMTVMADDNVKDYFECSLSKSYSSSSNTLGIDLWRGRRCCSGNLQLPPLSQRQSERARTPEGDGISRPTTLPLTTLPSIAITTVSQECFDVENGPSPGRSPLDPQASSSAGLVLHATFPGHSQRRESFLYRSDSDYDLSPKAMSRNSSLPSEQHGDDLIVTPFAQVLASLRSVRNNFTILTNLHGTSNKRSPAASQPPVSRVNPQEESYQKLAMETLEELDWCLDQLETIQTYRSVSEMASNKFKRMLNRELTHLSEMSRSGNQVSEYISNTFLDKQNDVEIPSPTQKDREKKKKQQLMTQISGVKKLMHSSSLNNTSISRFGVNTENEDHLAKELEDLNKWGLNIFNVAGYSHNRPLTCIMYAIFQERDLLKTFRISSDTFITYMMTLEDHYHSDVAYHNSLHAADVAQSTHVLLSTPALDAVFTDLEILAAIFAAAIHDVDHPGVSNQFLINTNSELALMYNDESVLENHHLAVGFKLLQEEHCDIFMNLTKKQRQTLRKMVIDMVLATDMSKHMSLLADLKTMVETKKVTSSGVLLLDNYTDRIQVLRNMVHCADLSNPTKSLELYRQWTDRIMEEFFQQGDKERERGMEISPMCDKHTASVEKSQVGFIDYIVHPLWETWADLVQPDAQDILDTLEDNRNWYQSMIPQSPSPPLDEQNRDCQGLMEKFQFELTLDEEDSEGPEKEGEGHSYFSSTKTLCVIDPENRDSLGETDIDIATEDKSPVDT
# Test Name: qHTS Assay for Inhibitors of PDE-IV (AID 607)
# Assay Conditions: HEK293 ACTOne CNG channel cells, membrane potential fluorescence; series mostly up to 22.9 µM
Results filed as inconclusive are left out. Calls of active or inactive are those of the source. The call rests on the fitted dose curve; in most records, active means well fitted activation curve with a large enough effect in the main read-out, with a control signal flat (not every such curve was filed as active); inconclusive means small, poorly fitted or top-dose-only effect, or effect the other way, or a change in a side signal; inactive means flat fitted curve, though single readings scatter.
Measured Parameter: outcome

Examples with answers:
{"Molecule": "C/C(=N/S(=O)(=O)c1ccc(Cl)c(Cl)c1)OCC(C)(C)C", "System": "3',5'-cyclic-AMP phosphodiesterase 4B (Homo sapiens) (UniProt Q07343)", "Measured Parameter": "outcome", "Measurement": "inactive"}
{"Molecule": "CC1(C)N=C(N)N=C(N)N1c1cccc(OCc2cccc(N)c2)c1", "System": "3',5'-cyclic-AMP phosphodiesterase 4B (Homo sapiens) (UniProt Q07343)", "Measured Parameter": "outcome", "Measurement": "inactive"}
{"Molecule": "C[C@@](O)(CNS(=O)(=O)c1ccccc1)c1ccccc1", "System": "3',5'-cyclic-AMP phosphodiesterase 4B (Homo sapiens) (UniProt Q07343)", "Measured Parameter": "outcome", "Measurement": "inactive"}
{"Molecule": "COC(=O)CCCC(=O)O", "System": "3',5'-cyclic-AMP phosphodiesterase 4B (Homo sapiens) (UniProt Q07343)", "Measured Parameter": "outcome", "Measurement": "inactive"}
{"Molecule": "Cc1ccc(S(=O)(=O)Oc2cc(S(=O)(=O)O)cc3cc(S(=O)(=O)O)cc(N)c23)cc1", "System": "3',5'-cyclic-AMP phosphodiesterase 4B (Homo sapiens) (UniProt Q07343)", "Measured Parameter": "outcome", "Measurement": "inactive"}

Provide outcome for all items below, preserving their order.
1. COC(=O)[C@@H]1C(O)[C@@H](C(=O)OC)[C@H](C)N(C)[C@@H]1C (some centres undefined)
2. O=C(O)[C@@H](Br)[C@@H](Br)c1ccccc1[N+](=O)[O-]
3. CC1=CC(C)(C)Nc2ccc(CSc3ccccc3)cc21
4. C[C@@]1(C(=O)O)CCC[C@@H]1C(=O)O
5. CCOC(=O)CCCN
6. CN(C)CCCNc1ncnc2nc[nH]c12
7. Cc1cc(O)c(C(C)C)cc1N=Cc1ccccc1O

RESULT:
1. inactive
2. inactive
3. inactive
4. inactive
5. inactive
6. inactive
7. inactive

Provide outcome for all items below, preserving their order.
1. CC1=N[C@@](C)(COC(=O)[C@]2(C)N[C@](C)(CO)CO2)COC1=O
2. CN(C)CCNS(=O)(=O)N(C)C

RESULT:
["inactive", "inactive"]

Provide outcome for all items below, preserving their order.
1. COc1ccc2nccc(SCC(=O)O)c2c1
2. CN(C)CCCCN1CCc2c(n(C)c3ccccc23)C1=O
3. C/C(=N\NC(N)=S)c1ccc[nH]1
4. O=C(O)CC[C@@]1(c2ccccc2)NC(=O)NC1=O

RESULT:
1: inactive; 2: inactive; 3: inactive; 4: inactive
